Biological target: T1, Lys48-linked UB chains (Ub2-7) (UniProt P0CG48 1-76, isopeptide bond between the C-terminus of the distal UB and Lys48 of the proximal UB)
T1 construct: Bought mixture of chain lengths Ub2-7; also called K48-linked UB chains; K48-linked ubiquitin chains
Assay: GST pull-down, immunoblot
MEASURE: binding result

Identify the reported binding result for the following entry. GST-OTU10 (enzyme, also called OTU10 (GST tag); not shown: GST and His tags from pET42 vector) MVSHEENTSIVEWFLGPHPYTYPPYGIEMIHEDDEVAVAHHHHHHQSGEYYREYEDHRSSDVDNDEIIARTLQDDFLQLEIAESNDYSHQNQQQQHQQEGYTNNYSNNNNGYAWNDQSPAVDYSSEWIGNDNDQDGRSDDSVNVFSCSSPSDTDEYVYSWESDQCDADGEFGRRLNQMVPIPYIPKINGEIPPEEEAVSDHERLRNRLEMFDFTEVKVPGDGNCQFRALADQLYKTADRHKHVRRQIVKQLKSRPDSYQGYVPMDFSDYLRKMSRSGEWGDHVTLQAAADAYRVKIVVLTSFKDTCYIEILPTSQESKGVIFLSFWAEVHYNAIYLNRDTSETELQRKRKWWRFGN
no binding

Give recorded binding result. GST-OTU3 (enzyme, Full-length coding region in pET42, expressed in E. coli; also called OTU3 (GST fusion); not shown: GST and His tags from pET42 vector) MELKSSSNNNILEQLRNGFARFELVSSPTASVSDSISSTSLPASFISTTKGNSYVFFARINSSMNRSPAAKKVEKYAVDRVKGDGRCLFRALVKGMAFNKGITLNPQRERDDADELRMAVKEVICNDPKEREKYKEALVAITVDESLKRFCQRIGRHDFWGGESELLVLSKLCKQPIIVYIPEHEHGRGGGYGPGFIPIQEYGSEFRGGWGKGKTNKNVVRLLYSGRNHYDLLR
no binding

Dear colleague, please send me the reported binding result for GST-OTU9 (enzyme, Full-length coding region in pET42, expressed in E. coli; also called OTU9 (GST fusion); not shown: GST and His tags from pET42 vector) MGYEPDPDALRWGLHDLEVCTLTNAGSCSSVTRYESGGGGTQGYVREGYNQPVTGYVDNDAVIAQFYQDELSRVARAEASGINSLSPTSVVAQDWPHPHQGQENQGEAIDITQESDILHNHNGNMEDKNVARIRFEGGQSSPSRDDDSVCSVEIEEESWSEVGKRLNQMIPIAHVPKINGELPSEDEQISDHERLFQRLQLYGLVENKIEGDGNCQFRSLSDQLYRSPEHHNFVREQVVNQLAYNREIYEGYVPMAYNDYLKAMKRNGEWGDHVTLQAAADLFGVRMFVITSFKDTCYIEILPHFQKSNRLICLSFWAEVHYNSIYPEGELPIPEGKKKKKYWVF when you can.
no binding
